All values here come from ChEMBL document CHEMBL3872237.

- test description: Growth inhibition of human U251 cells after 48 hrs by MTT assay
- Assay type: functional, cell-based
- setup conditions: U-251, 48 h
observation type: IC50 (nM)
Give your result in nM as a bare value.

Entry `C[C@@H]1O[C@@H](O[C@H]2[C@H](O[C@H]3CC[C@]4(C)[C@H]5CC=C6[C@@H]7CC(C)(C)CC[C@]7(C(=O)OCCCOc7no[n+]([O-])c7S(=O)(=O)c7ccccc7)CC[C@@]6(C)[C@]5(C)CC[C@H]4C3(C)C)OC[C@H](O[C@@H]3O[C@H](CO)[C@@H](O)[C@H](O)[C@H]3O)[C@@H]2O)[C@H](O)[C@H](O)[C@H]1O` — recorded IC50 = 1600
